Experiment: Caco-2 permeability assay
Type: in vitro ADME, human
Conditions: human, Caco-2 monolayer, apical to basolateral, donor 10 μM, 37° C., pH 7.4
Where a name gives a salt, the structure may show the parent alone.
In this section we review reported Papp A→B at 90 min, 10 μM values for a set of molecules.

These solved cases illustrate the format of a correct answer.
[
  {
    "molecule": "Cc1cc2cc3cn(nc13)COC(=O)C1(C/C=C\\CC3(CC3)C(=O)OCn3c(=O)c(cc4ccccc43)C3CCN(CC3)C(=O)N[C@@H](C(=O)N3CCN(C4CCN(C)CC4)CC3)C2)CC1 [Example 13]",
    "Papp A→B at 90 min, 10 μM": "0.839 ×10⁻⁶ cm/s"
  },
  {
    "molecule": "Cc1cc2cc3cn(nc13)COC(=O)C(C)(C)C/C=C\\CC(C)(C)C(=O)OCn1c(=O)c(cc3ccccc31)C1CCN(CC1)C(=O)N[C@@H](C(=O)N1CCN(C3CCN(C)CC3)CC1)C2 [Example 10]",
    "Papp A→B at 90 min, 10 μM": "0.31 ×10⁻⁶ cm/s"
  },
  {
    "molecule": "CCCCCCN(C)C(=O)OCn1cc2cc(C[C@@H](NC(=O)N3CCC(c4cc5ccccc5n(COC(=O)N(C)CCCCCC)c4=O)CC3)C(=O)N3CCN(C4CCN(C)CC4)CC3)cc(C)c2n1 [Example 93]",
    "Papp A→B at 90 min, 10 μM": "1.13 ×10⁻⁶ cm/s"
  }
]

## Task Give the measured Papp A→B at 90 min, 10 μM of Cc1cc(C[C@@H](NC(=O)N2CCC(c3cc4ccccc4n(COC(=O)C(C)(C)C)c3=O)CC2)C(=O)N2CCN(C3CCN(C)CC3)CC2)cc2cn(COC(=O)C(C)(C)C)nc12 [Example 4, trifluoroacetate] .
## Result 5.1 ×10⁻⁶ cm/s

## Task Note, next up: Cc1cc2cc3cn(nc13)COC(=O)C(C)(C)CCCCC(C)(C)C(=O)OCn1c(=O)c(cc3ccccc31)C1CCN(CC1)C(=O)N[C@@H](C(=O)N1CCN(C3CCN(C)CC3)CC1)C2 [Example 125]
## Result 2.2 ×10⁻⁶ cm/s

## Task Note, next up: Cc1cc(C[C@@H](NC(=O)N2CCC(c3cc4ccccc4[nH]c3=O)CC2)C(=O)N2CCN(C3CCN(C)CC3)CC2)cc2cn[nH]c12 [BHV-3500, reference compound]
## Result < 0.05 ×10⁻⁶ cm/s
